Assay: HPLC capacity factor (k')
Type: ADME
Mark each entry label 1 if its k' sits below 0.3, and label 0 for all others.

In [3]: df
Out[3]:
                                   compound  group_label
0  C[C@@H](CCc1ccccc1)Nc1ncnc2c1ncn2[C@@H]1O[C@H](CO)[C@@H](O)[C@H]1O      label 0
1  CCCCC(C)Nc1ncnc2c1ncn2C1O[C@H](CO)[C@@H](O)[C@H]1O (some centres undefined)      label 0
2  OC[C@H]1O[C@@H](n2cnc3c(NO)ncnc32)[C@H](O)[C@@H]1O      label 1
3  CC(C)CNc1ncnc2c1ncn2C1O[C@H](CO)[C@@H](O)[C@H]1O (some centres undefined)      label 0
4  CCNc1ncnc2c1ncn2C1O[C@H](CO)[C@@H](O)[C@H]1O (some centres undefined)      label 1
5  C[C@@H](CO)Nc1ncnc2c1ncn2C1O[C@H](CO)[C@@H](O)[C@H]1O (some centres undefined)      label 1
6  CC1(Nc2ncnc3c2ncn3C2O[C@H](CO)[C@@H](O)[C@H]2O)CCCCC1 (some centres undefined)      label 0
7  CCC(CNc1ncnc2c1ncn2C1O[C@H](CO)[C@@H](O)[C@H]1O)c1ccccc1 (some centres undefined)      label 0
8  OC[C@H]1O[C@@H](n2cnc3c(NC4CCC4)ncnc32)[C@H](O)[C@@H]1O      label 1

---

Target: Adenosine receptor A2a (Canis lupus familiaris)
Assay: Molar potency ratio was evaluated
Record met whenever MPR is at 0.8 or higher; record not met when lower.

>>> df
                                    molecule  group_label
 0  C[C@@H](CO)Nc1ncnc2c1ncn2C1O[C@H](CO)[C@@H](O)[C@H]1O (stereo partly drawn)      not met
 1  OC[C@H]1O[C@@H](n2cnc3c(NC4CC5CCC4C5)ncnc32)[C@H](O)[C@@H]1O (stereo in doubt; 57)      not met
 2  CC[C@@H](C)Nc1ncnc2c1ncn2[C@@H]1O[C@H](CO)[C@@H](O)[C@H]1O          met
 3  OC[C@H]1O[C@@H](n2cnc3c(NC4CC5CCC4C5)ncnc32)[C@H](O)[C@@H]1O (stereo in doubt; 58)      not met
 4  CCCCC(C)Nc1ncnc2c1ncn2C1O[C@H](CO)[C@@H](O)[C@H]1O (stereo partly drawn)      not met
 5  CC(C)(Cc1ccccc1)Nc1ncnc2c1ncn2C1O[C@H](CO)[C@@H](O)[C@H]1O (stereo partly drawn)      not met
 6  CCCCCNc1ncnc2c1ncn2[C@@H]1O[C@H](CO)[C@@H](O)[C@H]1O      not met
 7  C[C@@H](CNc1ncnc2c1ncn2[C@@H]1O[C@H](CO)[C@@H](O)[C@H]1O)c1ccccc1          met
 8  CC(C)CNc1ncnc2c1ncn2C1O[C@H](CO)[C@@H](O)[C@H]1O (stereo partly drawn)      not met
 9  NNc1ncnc2c1ncn2[C@@H]1O[C@H](CO)[C@@H](O)[C@H]1O      not met
10  OC[C@H]1O[C@@H](n2cnc3c(NCCc4ccccc4)ncnc32)[C@H](O)[C@@H]1O          met
11  C[C@H](CCc1ccccc1)Nc1ncnc2c1ncn2[C@@H]1O[C@H](CO)[C@@H](O)[C@H]1O      not met
12  OC[C@H]1O[C@@H](n2cnc3c(NC4CC4)ncnc32)[C@H](O)[C@@H]1O      not met
13  C[C@@H](CCc1ccccc1)Nc1ncnc2c1ncn2[C@@H]1O[C@H](CO)[C@@H](O)[C@H]1O      not met
14  C[C@@H](Nc1ncnc2c1ncn2[C@@H]1O[C@H](CO)[C@@H](O)[C@H]1O)[C@@H](O)c1ccccc1          met
15  OC[C@H]1O[C@@H](n2cnc3c(N[C@@H]4C[C@H]4c4ccccc4)ncnc32)[C@H](O)[C@@H]1O      not met
16  CCC(CC)Nc1ncnc2c1ncn2C1O[C@H](CO)[C@@H](O)[C@H]1O (stereo partly drawn)          met

---

Catalogue of MPR values
Target: Adenosine receptor A2a (Canis lupus familiaris) (UniProt P11617)
Sequence (P11617 whole entry, looked up): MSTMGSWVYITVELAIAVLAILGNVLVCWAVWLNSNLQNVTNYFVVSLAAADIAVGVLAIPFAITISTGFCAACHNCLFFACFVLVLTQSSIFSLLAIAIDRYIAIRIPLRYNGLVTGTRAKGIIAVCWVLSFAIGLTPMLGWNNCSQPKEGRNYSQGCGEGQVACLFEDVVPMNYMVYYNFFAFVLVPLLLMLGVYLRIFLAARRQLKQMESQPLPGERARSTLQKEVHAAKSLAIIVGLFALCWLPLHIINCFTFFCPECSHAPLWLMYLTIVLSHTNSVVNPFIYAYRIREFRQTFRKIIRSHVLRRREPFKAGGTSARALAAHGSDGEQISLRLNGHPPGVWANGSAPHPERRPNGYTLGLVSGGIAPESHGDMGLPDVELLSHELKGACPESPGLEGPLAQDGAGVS
Assay: Molar potency ratio was evaluated
attribute measured: MPR

>>> print(df.to_string())
                                   compound                                 tested_on  measured_value
0  C[C@@H](Nc1ncnc2c1ncn2[C@@H]1O[C@H](CO)[C@@H](O)[C@H]1O)c1ccccc1  Adenosine receptor A2a (Canis lupus familiaris) (UniProt P11617)            0.52
1  C=CCNc1ncnc2c1ncn2[C@@H]1O[C@H](CO)[C@@H](O)[C@H]1O  Adenosine receptor A2a (Canis lupus familiaris) (UniProt P11617)            0.23
2  OC[C@H]1OC(n2cnc3c(NCC4CCCCC4)ncnc32)[C@H](O)[C@@H]1O (some centres not stated)  Adenosine receptor A2a (Canis lupus familiaris) (UniProt P11617)            0.14
3  OC[C@H]1O[C@@H](n2cnc3/c(=N\O)[nH]cnc32)[C@H](O)[C@@H]1O  Adenosine receptor A2a (Canis lupus familiaris) (UniProt P11617)            0.16
4  CCCCCCNc1ncnc2c1ncn2C1O[C@H](CO)[C@@H](O)[C@H]1O (some centres not stated)  Adenosine receptor A2a (Canis lupus familiaris) (UniProt P11617)             0.2
5  C[C@H](Nc1ncnc2c1ncn2[C@@H]1O[C@H](CO)[C@@H](O)[C@H]1O)c1ccccc1  Adenosine receptor A2a (Canis lupus familiaris) (UniProt P11617)             0.2
6  OC[C@H]1OC(n2cnc3c(NC(Cc4ccccc4)Cc4ccccc4)ncnc32)[C@H](O)[C@@H]1O (some centres not stated)  Adenosine receptor A2a (Canis lupus familiaris) (UniProt P11617)            0.33

---

List of Amount bound values.
Target: Albumin (Bos taurus, UniProt P02769)
Sequence (P02769 whole entry): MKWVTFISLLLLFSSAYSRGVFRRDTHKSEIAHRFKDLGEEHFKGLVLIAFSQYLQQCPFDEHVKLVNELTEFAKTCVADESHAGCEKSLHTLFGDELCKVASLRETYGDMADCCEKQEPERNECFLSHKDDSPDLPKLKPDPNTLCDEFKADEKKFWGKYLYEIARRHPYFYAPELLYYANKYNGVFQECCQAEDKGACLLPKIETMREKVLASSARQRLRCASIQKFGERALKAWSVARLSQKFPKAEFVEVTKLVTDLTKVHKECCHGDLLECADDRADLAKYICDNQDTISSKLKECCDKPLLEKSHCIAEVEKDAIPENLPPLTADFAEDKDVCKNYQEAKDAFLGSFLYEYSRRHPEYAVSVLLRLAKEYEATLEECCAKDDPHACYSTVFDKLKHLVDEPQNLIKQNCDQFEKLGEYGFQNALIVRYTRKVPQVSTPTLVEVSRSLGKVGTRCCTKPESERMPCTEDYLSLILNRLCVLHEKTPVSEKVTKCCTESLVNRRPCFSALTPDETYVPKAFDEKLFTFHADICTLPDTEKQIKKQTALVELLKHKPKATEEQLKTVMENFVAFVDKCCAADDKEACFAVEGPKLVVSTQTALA
Experiment: Serum albumin binding
Conditions: cattle
attribute measured: Amount bound (M/g)

>>> print(df.to_string())
                                   compound  measured_value
0  CCCCNc1ncnc2c1ncn2[C@@H]1O[C@H](CO)[C@@H](O)[C@H]1O            1.06
1  CC(C)C(Nc1ncnc2c1ncn2C1O[C@H](CO)[C@@H](O)[C@H]1O)C(C)C (stereo not given in full)            2.97
2  CCCC(CCC)Nc1ncnc2c1ncn2C1O[C@H](CO)[C@@H](O)[C@H]1O (stereo not given in full)             7.1
3  CCC(CC)Nc1ncnc2c1ncn2C1O[C@H](CO)[C@@H](O)[C@H]1O (stereo not given in full)            0.78
4  OC[C@H]1O[C@@H](n2cnc3c(NC4CCCCCCC4)ncnc32)[C@H](O)[C@@H]1O            10.1

---

Experiment: HPLC capacity factor (k')
Type: ADME
attribute measured: k'

                                   compound  measured_value
0  CCCC(C)Nc1ncnc2c1ncn2C1O[C@H](CO)[C@@H](O)[C@H]1O (stereo not given in full)            2.38
1  C[C@H](Nc1ncnc2c1ncn2[C@@H]1O[C@H](CO)[C@@H](O)[C@H]1O)c1ccccc1            1.89
2  OC[C@H]1OC(n2cnc3c(OCCc4ccccc4)ncnc32)[C@H](O)[C@@H]1O (stereo not given in full)            2.36
3  CCCCCNc1ncnc2c1ncn2[C@@H]1O[C@H](CO)[C@@H](O)[C@H]1O            3.08
4  CCCCNc1ncnc2c1ncn2[C@@H]1O[C@H](CO)[C@@H](O)[C@H]1O            1.59

---

Assay: HPLC capacity factor (k')
Format: ADME
attribute measured: k'

>>> df
                                   compound  attribute_measured  measured_value
0  OC[C@H]1O[C@@H](n2cnc3c(NC4C5CCC4CC5)ncnc32)[C@H](O)[C@@H]1O (some centres undefined)                  k'             3.5
1  C[C@H](Cc1ccccc1)Nc1ncnc2c1ncn2[C@@H]1O[C@H](CO)[C@@H](O)[C@H]1O [(R)-PIA]                  k'            2.57
2  CN(Nc1ncnc2c1ncn2C1O[C@H](CO)[C@@H](O)[C@H]1O)c1ccccc1 (some centres undefined)                  k'            0.93
3  OC[C@H]1OC(n2cnc3c(NCC(O)c4ccccc4)ncnc32)[C@H](O)[C@@H]1O (some centres undefined)                  k'            0.79
4  CC(C)(Cc1ccccc1)Nc1ncnc2c1ncn2C1O[C@H](CO)[C@@H](O)[C@H]1O (some centres undefined)                  k'            7.43
5  CC[C@H](C)Nc1ncnc2c1ncn2C1O[C@H](CO)[C@@H](O)[C@H]1O (single isomer, unassigned)                  k'            0.96
6  CNc1ncnc2c1ncn2[C@@H]1O[C@H](CO)[C@@H](O)[C@H]1O                  k'            0.07
7  CC[C@@H](C)Nc1ncnc2c1ncn2[C@@H]1O[C@H](CO)[C@@H](O)[C@H]1O                  k'            0.89
8  CCCCCCNc1ncnc2c1ncn2C1O[C@H](CO)[C@@H](O)[C@H]1O (some centres undefined)                  k'            5.88

Where do the numbers come from? From ChEMBL document CHEMBL1123137.
